- Experimental Conditions: in ethanol, 318.2 K
Property Measured: solubility (mole fraction)
A bare number is all that is needed in reply.

Consider the compound shown here: O=c1cc(-c2ccc(O)cc2)oc2cc(O)cc(O)c12 What is its recorded solubility (mole fraction)?
0.000397

* * *

- Experimental Conditions: in water, 288.2 K
Property Measured: solubility (mole fraction)
A bare number is all that is needed in reply.

Consider the molecule shown here: O=c1cc(-c2ccc(O)cc2)oc2cc(O)cc(O)c12 What is its recorded solubility (mole fraction)?
7e-07

* * *

- Experimental Conditions: in n-propanol, 328.2 K
Property Measured: solubility (mole fraction)

Consider the molecule shown here: O=c1cc(-c2ccc(O)cc2)oc2cc(O)cc(O)c12 What is its recorded solubility (mole fraction)?
0.000677

* * *

- Experimental Conditions: in acetone, 308.2 K
Property Measured: solubility (mole fraction)
A bare number is all that is needed in reply.

Consider the compound shown here: O=c1cc(-c2ccc(O)cc2)oc2cc(O)cc(O)c12 What is its recorded solubility (mole fraction)?
0.000451

* * *

- Experimental Conditions: in ethyl acetate, 328.2 K
Property Measured: solubility (mole fraction)
A bare number is all that is needed in reply.

Consider the compound shown here: O=c1cc(-c2ccc(O)cc2)oc2cc(O)cc(O)c12 What is its recorded solubility (mole fraction)?
0.000548

* * *

- Experimental Conditions: in ethyl acetate, 308.2 K
Property Measured: solubility (mole fraction)
A bare number is all that is needed in reply.

Consider the compound shown here: O=c1cc(-c2ccc(O)cc2)oc2cc(O)cc(O)c12 What is its recorded solubility (mole fraction)?
0.000323

* * *

- Experimental Conditions: in acetone, 288.2 K
Property Measured: solubility (mole fraction)
A bare number is all that is needed in reply.

Consider the molecule shown here: O=c1cc(-c2ccc(O)cc2)oc2cc(O)cc(O)c12 What is its recorded solubility (mole fraction)?
0.000338

* * *

- Experimental Conditions: in n-butanol, 298.2 K
Property Measured: solubility (mole fraction)
A bare number is all that is needed in reply.

Consider the compound shown here: O=c1cc(-c2ccc(O)cc2)oc2cc(O)cc(O)c12 What is its recorded solubility (mole fraction)?
0.000568

* * *

- Experimental Conditions: in n-butanol, 308.2 K
Property Measured: solubility (mole fraction)
A bare number is all that is needed in reply.

Consider the compound shown here: O=c1cc(-c2ccc(O)cc2)oc2cc(O)cc(O)c12 What is its recorded solubility (mole fraction)?
0.0007

* * *

- Experimental Conditions: in water, 308.2 K
Property Measured: solubility (mole fraction)
A bare number is all that is needed in reply.

Consider the compound shown here: O=c1cc(-c2ccc(O)cc2)oc2cc(O)cc(O)c12 What is its recorded solubility (mole fraction)?
1.57e-06

* * *

- Experimental Conditions: in ethanol, 328.2 K
Property Measured: solubility (mole fraction)
A bare number is all that is needed in reply.

Consider the compound shown here: O=c1cc(-c2ccc(O)cc2)oc2cc(O)cc(O)c12 What is its recorded solubility (mole fraction)?
0.000449

* * *

- Experimental Conditions: in n-butanol, 318.2 K
Property Measured: solubility (mole fraction)

Consider the molecule shown here: O=c1cc(-c2ccc(O)cc2)oc2cc(O)cc(O)c12 What is its recorded solubility (mole fraction)?
0.000822

* * *

- Experimental Conditions: in n-butanol, 288.2 K
Property Measured: solubility (mole fraction)
A bare number is all that is needed in reply.

Consider the compound shown here: O=c1cc(-c2ccc(O)cc2)oc2cc(O)cc(O)c12 What is its recorded solubility (mole fraction)?
0.000478

* * *

- Experimental Conditions: in n-propanol, 298.2 K
Property Measured: solubility (mole fraction)
A bare number is all that is needed in reply.

Consider the compound shown here: O=c1cc(-c2ccc(O)cc2)oc2cc(O)cc(O)c12 What is its recorded solubility (mole fraction)?
0.000401

* * *

- Experimental Conditions: in water, 298.2 K
Property Measured: solubility (mole fraction)
A bare number is all that is needed in reply.

Consider the molecule shown here: O=c1cc(-c2ccc(O)cc2)oc2cc(O)cc(O)c12 What is its recorded solubility (mole fraction)?
1.03e-06

* * *

- Experimental Conditions: in ethanol, 288.2 K
Property Measured: solubility (mole fraction)
A bare number is all that is needed in reply.

Consider the compound shown here: O=c1cc(-c2ccc(O)cc2)oc2cc(O)cc(O)c12 What is its recorded solubility (mole fraction)?
0.000244

* * *

- Experimental Conditions: in acetone, 318.2 K
Property Measured: solubility (mole fraction)
A bare number is all that is needed in reply.

Consider the compound shown here: O=c1cc(-c2ccc(O)cc2)oc2cc(O)cc(O)c12 What is its recorded solubility (mole fraction)?
0.00054

* * *

- Experimental Conditions: in ethyl acetate, 318.2 K
Property Measured: solubility (mole fraction)
A bare number is all that is needed in reply.

Consider the molecule shown here: O=c1cc(-c2ccc(O)cc2)oc2cc(O)cc(O)c12 What is its recorded solubility (mole fraction)?
0.000442

* * *

- Experimental Conditions: in ethanol, 298.2 K
Property Measured: solubility (mole fraction)

Consider the compound shown here: O=c1cc(-c2ccc(O)cc2)oc2cc(O)cc(O)c12 What is its recorded solubility (mole fraction)?
0.000295

* * *

- Experimental Conditions: in n-propanol, 288.2 K
Property Measured: solubility (mole fraction)
A bare number is all that is needed in reply.

Consider the compound shown here: O=c1cc(-c2ccc(O)cc2)oc2cc(O)cc(O)c12 What is its recorded solubility (mole fraction)?
0.000343

* * *

- Experimental Conditions: in ethyl acetate, 288.2 K
Property Measured: solubility (mole fraction)
A bare number is all that is needed in reply.

Consider the compound shown here: O=c1cc(-c2ccc(O)cc2)oc2cc(O)cc(O)c12 What is its recorded solubility (mole fraction)?
0.000172

* * *

- Experimental Conditions: in acetone, 328.2 K
Property Measured: solubility (mole fraction)
A bare number is all that is needed in reply.

Consider the compound shown here: O=c1cc(-c2ccc(O)cc2)oc2cc(O)cc(O)c12 What is its recorded solubility (mole fraction)?
0.000654

* * *

- Experimental Conditions: in ethyl acetate, 298.2 K
Property Measured: solubility (mole fraction)
A bare number is all that is needed in reply.

Consider the compound shown here: O=c1cc(-c2ccc(O)cc2)oc2cc(O)cc(O)c12 What is its recorded solubility (mole fraction)?
0.000239

* * *

- Experimental Conditions: in water, 318.2 K
Property Measured: solubility (mole fraction)

Consider the compound shown here: O=c1cc(-c2ccc(O)cc2)oc2cc(O)cc(O)c12 What is its recorded solubility (mole fraction)?
2.11e-06

* * *

- Experimental Conditions: in methanol, 308.2 K
Property Measured: solubility (mole fraction)
A bare number is all that is needed in reply.

Consider the compound shown here: O=c1cc(-c2ccc(O)cc2)oc2cc(O)cc(O)c12 What is its recorded solubility (mole fraction)?
0.000179
